Data origin, for the record: patent US20260132129A1

# experimental-target: PI3Kα H1047R (T47D cells) (Homo sapiens, UniProt P42336, H1047R)
# Construct: endogenous in cells; host or cells: T47D cells
# Sequence (P42336 whole entry H1047R): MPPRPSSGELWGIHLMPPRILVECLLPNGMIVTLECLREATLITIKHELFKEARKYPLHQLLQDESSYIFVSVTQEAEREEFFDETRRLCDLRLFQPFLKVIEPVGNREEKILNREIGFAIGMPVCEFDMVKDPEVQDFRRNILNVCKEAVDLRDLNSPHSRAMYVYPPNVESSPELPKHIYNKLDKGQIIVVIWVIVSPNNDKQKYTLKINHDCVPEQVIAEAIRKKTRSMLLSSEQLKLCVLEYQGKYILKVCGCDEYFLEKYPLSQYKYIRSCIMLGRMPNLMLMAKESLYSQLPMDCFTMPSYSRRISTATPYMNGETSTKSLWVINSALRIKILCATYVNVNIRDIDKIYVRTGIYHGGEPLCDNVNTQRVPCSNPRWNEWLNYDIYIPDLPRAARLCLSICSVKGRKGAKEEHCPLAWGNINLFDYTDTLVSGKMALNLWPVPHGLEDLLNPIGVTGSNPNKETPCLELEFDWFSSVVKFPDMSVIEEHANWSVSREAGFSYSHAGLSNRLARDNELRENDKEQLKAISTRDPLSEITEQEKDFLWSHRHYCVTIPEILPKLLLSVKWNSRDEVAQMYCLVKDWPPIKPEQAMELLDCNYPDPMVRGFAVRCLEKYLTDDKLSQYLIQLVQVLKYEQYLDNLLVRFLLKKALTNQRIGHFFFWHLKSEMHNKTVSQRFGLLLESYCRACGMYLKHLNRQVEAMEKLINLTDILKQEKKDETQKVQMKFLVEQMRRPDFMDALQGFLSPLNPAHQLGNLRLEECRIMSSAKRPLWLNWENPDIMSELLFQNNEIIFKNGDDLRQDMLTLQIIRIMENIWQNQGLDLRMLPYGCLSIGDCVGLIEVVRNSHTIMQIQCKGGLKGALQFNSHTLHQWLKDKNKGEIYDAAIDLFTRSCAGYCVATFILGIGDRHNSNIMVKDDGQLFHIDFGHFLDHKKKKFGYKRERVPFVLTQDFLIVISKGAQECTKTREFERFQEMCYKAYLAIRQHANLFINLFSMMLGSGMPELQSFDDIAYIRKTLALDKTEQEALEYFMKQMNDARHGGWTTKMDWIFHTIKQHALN
# Sequence (P27986 whole entry partner): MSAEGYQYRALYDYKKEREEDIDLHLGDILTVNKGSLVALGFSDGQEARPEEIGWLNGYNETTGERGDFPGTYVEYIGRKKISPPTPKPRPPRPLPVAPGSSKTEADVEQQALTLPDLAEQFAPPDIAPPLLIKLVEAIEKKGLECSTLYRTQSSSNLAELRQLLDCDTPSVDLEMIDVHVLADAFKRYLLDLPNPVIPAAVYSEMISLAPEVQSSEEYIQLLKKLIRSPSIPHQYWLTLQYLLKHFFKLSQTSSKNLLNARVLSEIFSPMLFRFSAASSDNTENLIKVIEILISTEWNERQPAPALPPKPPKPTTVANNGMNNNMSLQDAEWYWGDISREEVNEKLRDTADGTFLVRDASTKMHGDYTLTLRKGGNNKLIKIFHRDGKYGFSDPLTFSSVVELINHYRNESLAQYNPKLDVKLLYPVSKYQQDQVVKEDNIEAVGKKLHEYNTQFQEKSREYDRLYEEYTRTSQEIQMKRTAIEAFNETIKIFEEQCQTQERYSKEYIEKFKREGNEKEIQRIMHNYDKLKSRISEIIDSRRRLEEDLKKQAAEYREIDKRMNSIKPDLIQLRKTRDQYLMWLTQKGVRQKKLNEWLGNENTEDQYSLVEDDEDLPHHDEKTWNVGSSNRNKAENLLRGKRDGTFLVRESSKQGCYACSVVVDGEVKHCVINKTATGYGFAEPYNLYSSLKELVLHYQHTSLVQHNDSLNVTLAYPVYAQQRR
# assay-remarks: PI3Kα cellular assay: pAKT HTRF in T47D cells after EGF stimulation
# Format: cell-based
# study-conditions: T47D cells (PI3Kα H1047R), pAKT S473 HTRF, EGF stimulation
property: IC50

# annotated cases, reported IC50 shown
Look at this compound and give its reported IC50. Cc1cc([C@H](C)Nc2ccccc2C(=O)O)c2nc(-c3ccc(C(F)F)nc3)c(C)c(=O)n2c1 [Compound 1149]
> 2000 nM

Which measured IC50 value corresponds to Cc1cc([C@@H](C)Nc2ccccc2C(=O)O)c2nc([C@@H]3CCCOC3)c(C)c(=O)n2c1 [Compound 1280] ?
< 100 nM

Reported IC50, compound Cc1cc(C(C)Nc2ccccc2C(=O)O)c2nc(-c3ccc4c(c(N)nn4C)c3C)c(C)c(=O)n2c1 (centres unmarked) [Compound 720] : ____
500 to 2000 nM

Could you tell me which IC50 is on file for Cc1cc(C(C)Nc2ccccc2C(=O)O)c2nc(-c3ccc4c(c3)CC(F)(F)C4)cc(=O)n2c1 (centres unmarked) [Compound 821] ?
100 to 500 nM

Reported IC50, compound Cc1cc(C(C)Nc2ccccc2S(N)(=O)=O)c2nc(-c3ccc(C4CNC4)nc3)c(C)c(=O)n2c1.O=C(O)C(F)(F)F (centres unmarked) [Compound 1305] : ____
> 2000 nM

Look up IC50 for the entries below, preserving their order.
1. Cc1cc([C@@H](C)Nc2ccccc2C(=O)O)c2nc(-c3cnc4c(c3)c(C)cn4C)c(C)c(=O)n2c1 [Compound 1050]
2. Cc1cc([C@@H](C)Nc2ccccc2C(=O)O)c2nc(N3CC4CC(F)(F)CC4C3)c(C)c(=O)n2c1 (some centres unmarked) [Compound 849]
3. Cc1cc(C(C)Nc2ccccc2C(=O)O)c2nc(-c3cc(C)c4oc(=O)[nH]c4c3)cc(=O)n2c1 (centres unmarked) [Compound 1413]
4. Cc1cc([C@@H](C)Nc2ccccc2S(N)(=O)=O)c2nc(-c3ccc4c(c3)c(C)cn4C3CC3)c(C)c(=O)n2c1 [Compound 995]

["< 100 nM", "100 to 500 nM", "100 to 500 nM", "> 2000 nM"]

###

Would you kindly list IC50 for each of these compounds?
# experimental-target: PI3Kα H1047R (T47D cells) (Homo sapiens, UniProt P42336, H1047R)
# Construct: endogenous in cells; host or cells: T47D cells
# assay-remarks: PI3Kα cellular assay: pAKT HTRF in T47D cells after EGF stimulation
# Type: cell-based
# study-conditions: T47D cells (PI3Kα H1047R), pAKT S473 HTRF, EGF stimulation
# Protocol: SKBR3 or T47D cells are seeded in DMEM containing 10% FBS at 25k cells/well into 96-well cell culture format. […] 384 well plate is left overnight at room temperature before reading HTRF on an Envision plate reader. ND denotes value not determined with that assay for the specified compound; • for T47D (H1047R) selectivity over SKBR3 (WT): A denotes >20-fold; B denotes 20-fold≥value>5-fold; C denotes ≤5-fold. […] ND denotes value not determined with that assay for the specified compound.

The following compounds have reported results that may help.
What does the data say about its IC50? Entry: CNc1nn(C)c2ccc(-c3cc(=O)n4cc(C)cc([C@@H](C)Nc5ccccc5C(=O)O)c4n3)cc12
< 0.1 µM

Would you kindly share the measured IC50 for Cc1cc([C@@H](C)Nc2ccccc2S(N)(=O)=O)c2nc(-c3ccc4c(C)nn(C5CC5)c4c3)c(C)c(=O)n2c1 ?
0.1 to 0.5 µM

Would you mind listing IC50 for each of the following compounds?
1. Cc1cc([C@@H](C)Nc2ccccc2C(=O)O)c2nc(N3CCC(C)(C)CC3)cc(=O)n2c1
2. Cc1cc([C@H](C)Nc2ccccc2S(N)(=O)=O)c2nc(-c3cnc4c(c3)c(C)nn4C)c(C)c(=O)n2c1
3. Cc1cc([C@@H](C)Nc2ccccc2-c2ccnnc2)c2nc(N3Cc4ccccc4C3)c(C3CC3)c(=O)n2c1 [Compound 847]
4. CC(Nc1ccccc1C(=O)O)c1cc(C(F)(F)F)cn2c(=O)cc(N3Cc4ccccc4C3)nc12 (stereo not shown) [Compound 922]
5. CC(=O)c1ccc(-c2cc(=O)n3cc(C)cc([C@H](C)Nc4ccccc4C(=O)O)c3n2)cc1

1: > 2 µM; 2: > 2 µM; 3: > 2 µM; 4: < 0.1 µM; 5: > 2 µM

###

# experimental-target: PI3Kα H1047R (T47D cells) (Homo sapiens, UniProt P42336, H1047R)
# Construct: endogenous in cells; host or cells: T47D cells
# assay-remarks: PI3Kα cellular assay: pAKT HTRF in T47D cells after EGF stimulation
# Format: cell-based
# study-conditions: T47D cells (PI3Kα H1047R), pAKT S473 HTRF, EGF stimulation
pIC50: −log10 of the molar value.
Please go through the items and note down their pIC50.

Example entries and their recorded answers appear below.
Entry Cc1cc([C@H](C)Nc2ccccc2C(N)=O)c2nc(-c3cnc(C)c(Cl)c3)c(C)c(=O)n2c1 [Compound 1136] : reported pIC50 = ?
< 5.70

So what does the record say about pIC50 for Cc1cc([C@@H](C)Nc2ccccc2C(=O)O)c2nc(-c3cccc(C(F)F)c3)c(C)c(=O)n2c1 [Compound 972] ?
> 7.00

// query pIC50 value for entry Cc1cc(C(C)Nc2ccccc2C(=O)O)c2nc(-c3cc(C)ncn3)c(C)c(=O)n2c1 (stereo not shown) [Compound 1203]
6.30 to 7.00

Given Cc1cc([C@@H](C)Oc2ccccc2C2(O)CS(=O)(=O)C2)c2nc(-c3cccc(F)c3)c(C)c(=O)n2c1 [Compound 1392] , state its recorded pIC50.
< 5.70

Reported pIC50 for Cc1cc([C@@H](C)Nc2ccccc2S(N)(=O)=O)c2nc([C@H]3CCCN(CC(F)F)C3)c(C)c(=O)n2c1 [Compound 1310] : what is it?
< 5.70

Quick one: give me pIC50 for each item below, same order please.
1. Cc1cc([C@@H](C)Nc2ccccc2C(N)=O)c2nc(-c3ccnc(C4CC4)c3)c(C)c(=O)n2c1 [Compound 1089]
2. COc1cc(-c2nc3c([C@H](C)Nc4ccccc4C(=O)O)cc(C)cn3c(=O)c2C)cn2ncc(C#N)c12 [Compound 1292]

["< 5.70", "< 5.70"]

###

# experimental-target: PI3Kα H1047R (T47D cells) (Homo sapiens, UniProt P42336, H1047R)
# Construct: endogenous in cells; host or cells: T47D cells
# assay-remarks: PI3Kα cellular assay: pAKT HTRF in T47D cells after EGF stimulation
# Format: cell-based
# study-conditions: selectivity T47D (H1047R) over SKBR3 (WT), pAKT HTRF
property: T47D pAKT S473 HTRF IC50 (H1047R): T47D (H1047R) selectivity over SKBR3 (WT)

The following compounds have reported results that may help.
# input compound: Cc1cc(C(C)Nc2ccccc2C(=O)O)c2nc(Nc3ccc(C(=O)O)cc3)cc(=O)n2c1 (stereo not drawn) ; wanted: its T47D pAKT S473 HTRF IC50 (H1047R): T47D (H1047R) selectivity over SKBR3 (WT)
C (C denotes ≤5-fold)

Record request: T47D pAKT S473 HTRF IC50 (H1047R): T47D (H1047R) selectivity over SKBR3 (WT) value, item Cc1cc(C(C)Nc2ccccc2C(=O)O)c2nc(N3CCSCC3)cc(=O)n2c1 (stereo not drawn) [Compound 240]
A (A denotes >20-fold)

Requested read-out: T47D pAKT S473 HTRF IC50 (H1047R): T47D (H1047R) selectivity over SKBR3 (WT). Entry: Cc1cc(C(C)Nc2ccccc2C(=O)O)c2nc(Nc3ccc4[nH]c(=O)oc4c3)cc(=O)n2c1 (stereo not drawn)
C (C denotes ≤5-fold)

Item under review: C#Cc1ccc(-c2nc3c(C(C)Nc4ccccc4C(=O)O)cc(C)cn3c(=O)c2C)cn1 (stereo not drawn) . Reported T47D pAKT S473 HTRF IC50 (H1047R): T47D (H1047R) selectivity over SKBR3 (WT)?
A (A denotes >20-fold)

State the recorded T47D pAKT S473 HTRF IC50 (H1047R): T47D (H1047R) selectivity over SKBR3 (WT) for this entry: Cc1cc([C@H](C)Nc2ccccc2C(=O)O)c2nc(C3CCN(C(=O)C4(N)CC4)CC3)cc(=O)n2c1
C (C denotes ≤5-fold)

Below are some compounds; for each one, tell me its T47D pAKT S473 HTRF IC50 (H1047R): T47D (H1047R) selectivity over SKBR3 (WT).
1. Cc1cc(C(C)Nc2ccccc2C(=O)O)c2nc(N3CCN(c4ccncc4)CC3)cc(=O)n2c1 (stereo not drawn)
2. Cc1cc(C(C)Nc2ccccc2C(=O)O)c2nc(-c3ccncc3)cc(=O)n2c1 (single isomer, unassigned) [Compound 269]

1. C (C denotes ≤5-fold)
2. A (A denotes >20-fold)
